meta.source: patent US20170101472A1

Target: T1, human LAG3 expressed on HEK293 cells (human, UniProt P18627 23-525)
T1 construct: also called hLAG3; HEK293/hLAG3
T1 sequence: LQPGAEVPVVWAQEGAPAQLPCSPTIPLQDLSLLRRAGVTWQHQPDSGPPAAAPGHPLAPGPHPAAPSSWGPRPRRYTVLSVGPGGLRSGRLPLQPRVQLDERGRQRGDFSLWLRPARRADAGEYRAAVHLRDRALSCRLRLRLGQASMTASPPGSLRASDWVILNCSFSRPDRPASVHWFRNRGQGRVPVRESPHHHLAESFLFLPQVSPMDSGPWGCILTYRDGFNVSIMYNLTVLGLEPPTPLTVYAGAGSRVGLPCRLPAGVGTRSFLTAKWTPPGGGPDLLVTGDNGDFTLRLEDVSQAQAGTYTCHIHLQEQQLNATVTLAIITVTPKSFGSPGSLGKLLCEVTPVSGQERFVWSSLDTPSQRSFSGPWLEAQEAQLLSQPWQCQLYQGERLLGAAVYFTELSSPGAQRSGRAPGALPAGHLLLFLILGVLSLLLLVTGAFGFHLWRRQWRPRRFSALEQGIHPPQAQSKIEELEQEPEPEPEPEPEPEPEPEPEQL
Test: cell adherence assay, blocks A20 (mouse MHCII) cells on HEK293-hLAG3
EXPERIMENTAL_ENDPOINT: pIC50
In simple prose, pIC50 is minus the logarithm base ten of a concentration in moles per litre.

# get_value(readout='pIC50', item= H4H14813N (antibody, human IgG4, V domains shown, H4H = human IgG4 Fc with S108P hinge mutation) VH: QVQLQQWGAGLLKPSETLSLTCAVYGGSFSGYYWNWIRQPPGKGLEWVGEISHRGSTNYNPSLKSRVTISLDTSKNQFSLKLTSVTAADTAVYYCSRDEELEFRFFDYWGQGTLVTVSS VL: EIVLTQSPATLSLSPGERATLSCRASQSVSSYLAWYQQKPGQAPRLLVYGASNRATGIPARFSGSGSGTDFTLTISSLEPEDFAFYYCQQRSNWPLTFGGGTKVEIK )
8.00

# get_value(readout='pIC50', item= H4H17819P (antibody, human IgG4, V domains shown, H4H = human IgG4 Fc with S108P hinge mutation) VH: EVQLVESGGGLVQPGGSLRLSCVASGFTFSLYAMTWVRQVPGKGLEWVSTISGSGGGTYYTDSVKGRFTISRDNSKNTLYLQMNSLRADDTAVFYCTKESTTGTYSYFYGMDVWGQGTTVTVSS VL: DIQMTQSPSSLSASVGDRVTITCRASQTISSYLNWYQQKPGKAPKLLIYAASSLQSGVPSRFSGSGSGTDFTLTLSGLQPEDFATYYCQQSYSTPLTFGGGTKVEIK )
7.80

# get_value(readout='pIC50', item= H4H15483P (antibody, human IgG4, V domains shown, H4H = human IgG4 Fc with S108P hinge mutation) VH: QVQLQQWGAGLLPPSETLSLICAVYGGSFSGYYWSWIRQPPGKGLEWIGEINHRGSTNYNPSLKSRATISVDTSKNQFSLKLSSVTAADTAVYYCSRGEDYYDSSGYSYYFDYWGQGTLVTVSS VL: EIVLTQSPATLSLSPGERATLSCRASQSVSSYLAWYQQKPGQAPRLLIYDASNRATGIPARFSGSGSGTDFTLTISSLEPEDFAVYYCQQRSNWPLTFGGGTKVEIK )
7.80

# get_value(readout='pIC50', item= H4H17823P (antibody, human IgG4, V domains shown, H4H = human IgG4 Fc with S108P hinge mutation) VH: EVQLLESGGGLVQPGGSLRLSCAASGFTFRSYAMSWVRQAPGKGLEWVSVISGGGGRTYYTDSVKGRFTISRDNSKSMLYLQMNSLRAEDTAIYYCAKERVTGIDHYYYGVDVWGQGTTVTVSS VL: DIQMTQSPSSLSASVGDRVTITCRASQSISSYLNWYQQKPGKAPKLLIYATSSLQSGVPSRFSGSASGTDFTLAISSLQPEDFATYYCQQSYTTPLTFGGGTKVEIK )
8.03

# get_value(readout='pIC50', item= H4sH15479P (antibody, V domains shown) VH: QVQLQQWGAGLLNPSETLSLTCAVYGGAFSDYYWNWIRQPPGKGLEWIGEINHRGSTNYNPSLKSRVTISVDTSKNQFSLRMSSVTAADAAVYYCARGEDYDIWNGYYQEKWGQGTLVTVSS VL: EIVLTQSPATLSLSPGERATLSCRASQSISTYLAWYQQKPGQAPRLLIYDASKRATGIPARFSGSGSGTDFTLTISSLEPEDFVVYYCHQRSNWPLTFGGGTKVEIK )
8.20

# get_value(readout='pIC50', item= H4sH14813N (antibody, human IgG4 S228P, kappa, V domains shown, H4sH = modified human IgG4 Fc) VH: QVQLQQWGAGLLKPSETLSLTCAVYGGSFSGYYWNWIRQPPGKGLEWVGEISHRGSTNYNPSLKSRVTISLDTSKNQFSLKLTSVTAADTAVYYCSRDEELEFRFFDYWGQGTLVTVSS VL: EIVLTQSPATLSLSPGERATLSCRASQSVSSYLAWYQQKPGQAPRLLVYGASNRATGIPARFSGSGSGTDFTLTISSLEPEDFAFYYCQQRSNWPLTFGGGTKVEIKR )
8.00
